Attribute: switch fluorescence ratio
# Tested on: ATP;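 further: ATP exposure 15 min at 22 °C before imaging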
# assayComment: switch fluorescence ratio, 500 uM ATP over buffer (Cy3 cluster intensity, sum of 5 cycles each) (fold (ratio)); higher = stronger signal-on switching upon ATP binding; sequences stand for … in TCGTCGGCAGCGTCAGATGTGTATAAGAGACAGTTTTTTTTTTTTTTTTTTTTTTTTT…TC
# studyConditions: aptamer strand: ATP DNA aptamer (quencher-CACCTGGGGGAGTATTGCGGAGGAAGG + anchor), 100 nM annealed; ATP concentration: 500 uM

- residueCodes: "AAGTGGAGTC"
  switch fluorescence ratio: 1.05
- residueCodes: "TATAGTATGT"
  switch fluorescence ratio: 1.01
- residueCodes: "TTTCGATTTG"
  switch fluorescence ratio: 1.02
- residueCodes: "TATTTCTGTT"
  switch fluorescence ratio: 0.984
- residueCodes: "AGTAAGGGTA"
  switch fluorescence ratio: 1.02
- residueCodes: "ATAAAAAGGT"
  switch fluorescence ratio: 0.987
- residueCodes: "GCTGTCGGTG"
  switch fluorescence ratio: 0.972
- residueCodes: "TTTCAGTGGT"
  switch fluorescence ratio: 0.986
- residueCodes: "TTTTGTTTCC"
  switch fluorescence ratio: 1.01
- residueCodes: "TTTTTGTTTA"
  switch fluorescence ratio: 0.971
- residueCodes: "TTTTGGCT"
  switch fluorescence ratio: 1.02
- residueCodes: "GAAGCTGTAT"
  switch fluorescence ratio: 1.1
- residueCodes: "CGGTTTGGAT"
  switch fluorescence ratio: 1.01
- residueCodes: "CGGCGGCACG"
  switch fluorescence ratio: 0.998
- residueCodes: "ATATATTGCG"
  switch fluorescence ratio: 1.02
- residueCodes: "GAAAGGGGGA"
  switch fluorescence ratio: 1.02
- residueCodes: "GATGGTTGGG"
  switch fluorescence ratio: 0.998
- residueCodes: "TCGTGAAGAG"
  switch fluorescence ratio: 0.987
- residueCodes: "GCCTGGTTGG"
  switch fluorescence ratio: 0.995
- residueCodes: "GATTATTGTA"
  switch fluorescence ratio: 0.976
- residueCodes: "CAGCCTTATT"
  switch fluorescence ratio: 0.997

Source listed as the supplement of paper PMC10126150.
